Target sequence: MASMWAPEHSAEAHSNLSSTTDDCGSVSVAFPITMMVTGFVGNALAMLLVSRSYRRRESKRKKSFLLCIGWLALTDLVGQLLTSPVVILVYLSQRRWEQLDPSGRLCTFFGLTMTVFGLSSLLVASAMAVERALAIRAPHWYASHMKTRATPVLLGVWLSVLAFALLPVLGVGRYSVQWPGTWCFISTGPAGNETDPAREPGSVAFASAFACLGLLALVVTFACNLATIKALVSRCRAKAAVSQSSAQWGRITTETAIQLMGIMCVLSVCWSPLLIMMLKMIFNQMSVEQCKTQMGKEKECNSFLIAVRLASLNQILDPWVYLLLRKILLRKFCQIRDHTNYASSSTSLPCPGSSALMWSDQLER
Property label: Ki (nM)

O=C(O)COc1cccc2c(C[S+]([O-])CC(O)COc3ccccc3)cccc12 (centres unmarked): 150
O=C(O)COc1cccc2c(CCSCC(O)COc3ccccc3)cccc12 (centres unmarked): 48

P: O=C(O)COc1cccc2c(CCS(=O)(=O)CC(O)COc3ccccc3)cccc12 (centres unmarked)
Q: O=C(O)COc1cccc2c(CCCSCC(O)c3ccccc3)cccc12 (centres unmarked)
R: O=C(O)COc1cccc2c(CCC[S+]([O-])/C=C/c3ccccc3)cccc12 (centres unmarked)
Rank descending by Ki. Show the ranking through the labels, in the order asked for.
Q, R, P
